assay.procedure: Selectivity index, ratio HC50 for hemolytic activity in human RBC to MIC for antibacterial activity against Staphylococcus aureus ATCC 9144
Assay type: toxicity
conditions: human red blood cells (erythrocytes)
property.measured: selectivity ratio
// print number alone

N=C(N)NCCCN1C(=O)N(CCCNC(=N)N)C(=O)C(Cc2cc(C(F)(F)F)cc(C(F)(F)F)c2)(Cc2cc(C(F)(F)F)cc(C(F)(F)F)c2)C1=O.O=C(O)C(F)(F)F.O=C(O)C(F)(F)F :: 111
N=C(N)NCCCCN1C(=O)N(CCCCNC(=N)N)C(=O)C(Cc2ccc(C(F)(F)F)cc2)(Cc2cc(Br)cc(Br)c2)C1=O.O=C(O)C(F)(F)F.O=C(O)C(F)(F)F (configuration not stated) :: 81
N=C(N)NCCCCN1C(=O)N(CCCCNC(=N)N)C(=O)C(Cc2cc(Br)cc(Br)c2)(Cc2cc(Br)cc(Br)c2)C1=O.O=C(O)C(F)(F)F.O=C(O)C(F)(F)F :: 32
NCCCN1C(=O)N(CCCN)C(=O)C(Cc2ccc(Br)c(Cl)c2)(Cc2ccc(Br)c(Cl)c2)C1=O.O=C(O)C(F)(F)F.O=C(O)C(F)(F)F :: 40

Please report selectivity ratio for the following compound: CC(C)(C)c1ccc(CC2(Cc3cc(Br)cc(Br)c3)C(=O)N(CCCNC(=N)N)C(=O)N(CCCNC(=N)N)C2=O)cc1.O=C(O)C(F)(F)F.O=C(O)C(F)(F)F (configuration not stated) 169

* * *

Test system: Pseudomonas aeruginosa
assay.procedure: Antibacterial activity against Pseudomonas aeruginosa ATCC 27853 incubated for 48 hrs and measured by broth microdilution assay
Format: functional
property.measured: MIC (µg/mL)
Give just the number in µg/mL; leave the unit off.

Some entries whose results are on file:
N=C(N)NCCCCN1C(=O)N(CCCCNC(=N)N)C(=O)C(Cc2ccc(C(F)(F)F)cc2)(Cc2cc(Br)cc(Br)c2)C1=O.O=C(O)C(F)(F)F.O=C(O)C(F)(F)F (configuration not stated) :: 16
NCCCCN1C(=O)N(CCCCN)C(=O)C(Cc2cc(Br)cc(Br)c2)(Cc2ccc(Br)c3ccccc23)C1=O.O=C(O)C(F)(F)F.O=C(O)C(F)(F)F :: 8
N=C(N)NCCCCN1C(=O)N(CCCCNC(=N)N)C(=O)C(Cc2cc(Br)cc(Br)c2)(Cc2ccc(Br)c3ccccc23)C1=O.O=C(O)C(F)(F)F.O=C(O)C(F)(F)F (configuration not stated) :: 8
N[C@H]1CC[C@@H](N2C(=O)N([C@H]3CC[C@@H](N)CC3)C(=O)C(Cc3cc(Br)cc(Br)c3)(Cc3cc(Br)cc(Br)c3)C2=O)CC1.O=C(O)C(F)(F)F.O=C(O)C(F)(F)F :: 8
N[C@H]1C[C@@H](N2C(=O)N([C@H]3C[C@@H](N)C3)C(=O)C(Cc3cc(Br)cc(Br)c3)(Cc3cc(Br)cc(Br)c3)C2=O)C1.O=C(O)C(F)(F)F.O=C(O)C(F)(F)F :: 8
NCCCCN1C(=O)N(CCCCN)C(=O)C(Cc2cc(Br)cc(Br)c2)(Cc2cc(Br)cc(Br)c2)C1=O.O=C(O)C(F)(F)F.O=C(O)C(F)(F)F :: 8
CCCCCCC1(Cc2cc(Br)cc(Br)c2)C(=O)N(CCCCNC(=N)N)C(=O)N(CCCCNC(=N)N)C1=O.O=C(O)C(F)(F)F.O=C(O)C(F)(F)F (configuration not stated) :: 8
NCCCCN1C(=O)N(CCCCN)C(=O)C(Cc2cc(Br)cc(Br)c2)(Cc2ccc3ccccc3n2)C1=O.O=C(O)C(F)(F)F.O=C(O)C(F)(F)F :: 256

Please report MIC for the following compound: CC(C)(C)c1ccc(CC2(Cc3cc(Br)cc(Br)c3)C(=O)N(CCCN)C(=O)N(CCCN)C2=O)cc1.O=C(O)C(F)(F)F.O=C(O)C(F)(F)F 8

Please report MIC for the following compound: CC(C)(C)c1ccc(CC2(Cc3cc(Br)cc(Br)c3)C(=O)N(CCCCNC(=N)N)C(=O)N(CCCCNC(=N)N)C2=O)cc1.O=C(O)C(F)(F)F.O=C(O)C(F)(F)F (configuration not stated) 4

Please report MIC for the following compound: N=C(N)NCCCCN1C(=O)N(CCCCNC(=N)N)C(=O)C(Cc2cc(Br)cc(Br)c2)(Cc2cc(C(F)(F)F)cc(C(F)(F)F)c2)C1=O.O=C(O)C(F)(F)F.O=C(O)C(F)(F)F (configuration not stated) 4

* * *

assay.procedure: Hemolytic activity in human RBC measured after 1 hr by microplate reader method
Assay type: toxicity, cell-based, Erythrocyte
conditions: human, human red blood cells (erythrocytes)
property.measured: EC50 at 1 h (µg/mL)
Give just the number in µg/mL; leave the unit off.

CC(C)(C)c1ccc(CC2(Cc3cc(Br)cc(Br)c3)C(=O)N(CCCCN)C(=O)N(CCCCN)C2=O)cc1.O=C(O)C(F)(F)F.O=C(O)C(F)(F)F :: 82
CC(C)(C)c1ccc(CC2(Cc3cc(Br)cc(Br)c3)C(=O)N(CCCCNC(=N)N)C(=O)N(CCCCNC(=N)N)C2=O)cc1.O=C(O)C(F)(F)F.O=C(O)C(F)(F)F (stereo unspecified) :: 39

Would you kindly look at the next entry?
Please report EC50 at 1 h for the following compound: N[C@H]1C[C@H](N2C(=O)N([C@H]3C[C@H](N)C3)C(=O)C(Cc3cc(Br)cc(Br)c3)(Cc3cc(Br)cc(Br)c3)C2=O)C1.O=C(O)C(F)(F)F.O=C(O)C(F)(F)F 93

* * *

The molecules listed here are annotated with their MIC.
System: Pseudomonas aeruginosa
assay.procedure: Antibacterial activity against Pseudomonas aeruginosa ATCC 27853 incubated for 48 hrs and measured by broth microdilution assay
Type: functional
Give just the number in µg/mL; leave the unit off.

Some entries whose results are on file:
NCCCCN1C(=O)N(CCCCN)C(=O)C(Cc2ccc3cc(Br)ccc3n2)(Cc2ccc3cc(Br)ccc3n2)C1=O.O=C(O)C(F)(F)F.O=C(O)C(F)(F)F :: 256
CC(C)(C)c1ccc(CC2(Cc3cc(Br)cc(Br)c3)C(=O)N(CCCNC(=N)N)C(=O)N(CCCNC(=N)N)C2=O)cc1.O=C(O)C(F)(F)F.O=C(O)C(F)(F)F (configuration not stated) :: 16
NCCCN1C(=O)N(CCCN)C(=O)C(Cc2ccc(Br)c3ccccc23)(Cc2ccc(Br)c3ccccc23)C1=O.O=C(O)C(F)(F)F.O=C(O)C(F)(F)F :: 4
N[C@H]1CC[C@H](N2C(=O)N([C@H]3CC[C@H](N)CC3)C(=O)C(Cc3cc(Br)cc(Br)c3)(Cc3cc(Br)cc(Br)c3)C2=O)CC1.O=C(O)C(F)(F)F.O=C(O)C(F)(F)F :: 4
CNCCCCN1C(=O)N(CCCCNC)C(=O)C(Cc2cc(Br)cc(Br)c2)(Cc2cc(Br)cc(Br)c2)C1=O.O=C(O)C(F)(F)F.O=C(O)C(F)(F)F :: 16

Please report MIC for the following molecule: N=C(N)N[C@H]1CC[C@@H](N2C(=O)N([C@H]3CC[C@@H](NC(=N)N)CC3)C(=O)C(Cc3cc(Br)cc(Br)c3)(Cc3cc(Br)cc(Br)c3)C2=O)CC1.O=C(O)C(F)(F)F.O=C(O)C(F)(F)F 4

Please report MIC for the following molecule: NCCCCN1C(=O)N(CCCCN)C(=O)C(Cc2cc(Br)c(Br)cc2Br)(Cc2cc(Br)c(Br)cc2Br)C1=O.O=C(O)C(F)(F)F.O=C(O)C(F)(F)F 8

Please report MIC for the following molecule: NCCCN1C(=O)N(CCCN)C(=O)C(Cc2ccc(Br)c(Cl)c2)(Cc2ccc(Br)c(Cl)c2)C1=O.O=C(O)C(F)(F)F.O=C(O)C(F)(F)F 16

Please report MIC for the following molecule: N=C(N)NCCCCN1C(=O)N(CCCCNC(=N)N)C(=O)C(Cc2c(Br)cc(Br)cc2Br)(Cc2c(Br)cc(Br)cc2Br)C1=O.O=C(O)C(F)(F)F.O=C(O)C(F)(F)F 4

Please report MIC for the following molecule: NCCCCN1C(=O)N(CCCCN)C(=O)C(Cc2ccc(Br)c3ccccc23)(Cc2ccc(Br)c3ccccc23)C1=O.O=C(O)C(F)(F)F.O=C(O)C(F)(F)F 4

Please report MIC for the following molecule: N=C(N)NCCN1C(=O)N(CCNC(=N)N)C(=O)C(Cc2cc(Br)cc(Br)c2)(Cc2cc(Br)cc(Br)c2)C1=O.O=C(O)C(F)(F)F.O=C(O)C(F)(F)F 16

Please report MIC for the following molecule: N=C(N)NCCCCCCN1C(=O)N(CCCCCCNC(=N)N)C(=O)C(Cc2cc(Br)cc(Br)c2)(Cc2cc(Br)cc(Br)c2)C1=O.O=C(O)C(F)(F)F.O=C(O)C(F)(F)F 32

* * *

assay.procedure: Hemolytic activity in human RBC measured after 1 hr by microplate reader method
Assay type: toxicity, cell-based, Erythrocyte
conditions: human, human red blood cells (erythrocytes)
Response field label: string, one of T (EC50 at 1 h strictly below 50 µg/mL) or F.

These recorded examples may help you get a feel for the data.
N=C(N)NCCCCN1C(=O)N(CCCCNC(=N)N)C(=O)C(Cc2ccc(C(F)(F)F)cc2)(Cc2cc(Br)cc(Br)c2)C1=O.O=C(O)C(F)(F)F.O=C(O)C(F)(F)F (stereo unspecified) :: F
NCCCCN1C(=O)N(CCCCN)C(=O)C(Cc2ccc(C(F)(F)F)cc2)(Cc2cc(Br)cc(Br)c2)C1=O.O=C(O)C(F)(F)F.O=C(O)C(F)(F)F :: F
N=C(N)NCCCCN1C(=O)N(CCCCNC(=N)N)C(=O)C(Cc2ccc3cc(Br)ccc3n2)(Cc2ccc3cc(Br)ccc3n2)C1=O.O=C(O)C(F)(F)F.O=C(O)C(F)(F)F :: F
N=C(N)NCCCCN1C(=O)N(CCCCNC(=N)N)C(=O)C(Cc2ccc(Br)c3ccccc23)(Cc2ccc(Br)c3ccccc23)C1=O.O=C(O)C(F)(F)F.O=C(O)C(F)(F)F :: T
N=C(N)N[C@H]1CC[C@@H](N2C(=O)N([C@H]3CC[C@@H](NC(=N)N)CC3)C(=O)C(Cc3cc(Br)cc(Br)c3)(Cc3cc(Br)cc(Br)c3)C2=O)CC1.O=C(O)C(F)(F)F.O=C(O)C(F)(F)F :: T

Field: below-cutoff. Rule: recorded EC50 at 1 h strictly less than 50 µg/mL. Subject: NCCCCN1C(=O)N(CCCCN)C(=O)C(Cc2cc(Br)cc(Br)c2)(Cc2ccc3ccccc3n2)C1=O.O=C(O)C(F)(F)F.O=C(O)C(F)(F)F F

Field: below-cutoff. Rule: recorded EC50 at 1 h strictly less than 50 µg/mL. Subject: N[C@H]1CC[C@@H](N2C(=O)N([C@H]3CC[C@@H](N)CC3)C(=O)C(Cc3cc(Br)cc(Br)c3)(Cc3cc(Br)cc(Br)c3)C2=O)CC1.O=C(O)C(F)(F)F.O=C(O)C(F)(F)F T

FYI, the data here is from ChEMBL document CHEMBL5108036.
